Assay: physchem
Format: physicochemical
Conditions: Solubility (mg/mL) at Ambient Temperature, 50% EtOH/water
measurement.label: solubility

// solved cases for solubility follow
molecule=CCCCCCCCCCCCCCCCNC(=O)CN(CC(N)=O)C(=O)CCCCCNC(=O)[C@H](Cc1c[nH]c2ccccc12)NC(=O)[C@H](CCCNC(=N)N)NC(=O)[C@H](CSSC)NC(=O)[C@H](CCCNC(=N)N)NC(=O)C1CCN(C(=O)[C@@H](NC(=O)[C@H](Cc2c[nH]cn2)NC(=O)[C@@H](NC(=O)CNCC(=O)O)[C@@H](C)O)C(c2ccccc2)c2ccccc2)CC1 result="> 100 mg/mL"
molecule="CCCCCCCCCCCCCCCCNC(=O)CN(CC(N)=O)C(=O)CCCCCNC(=O)C(Cc1c[nH]c2ccccc12)NC(=O)C(CCCNC(=N)N)NC(=O)C(CSSC)NC(=O)C(CCCNC(=N)N)NC(=O)C1CCCN(C(=O)C(NC(=O)C(Cc2c[nH]cn2)NC(=O)C(NC(=O)CNCC(=O)O)C(C)O)C(c2ccccc2)c2ccccc2)C1 (stereo not drawn)" result="> 100 mg/mL"
molecule=CCCCCCCCCCCCCCCCNC(=O)CN(CC(N)=O)C(=O)CCCCCNC(=O)[C@H](Cc1c[nH]c2ccccc12)NC(=O)[C@H](CCCNC(=N)N)NC(=O)[C@H](CSSC)NC(=O)[C@H](CCCNC(=N)N)NC(=O)C[C@@H]1CCCN1C(=O)[C@@H](NC(=O)[C@H](Cc1c[nH]cn1)NC(=O)[C@@H](NC(=O)CN(CC(=O)O)C(=O)CNC(C)=O)[C@@H](C)O)C(c1ccccc1)c1ccccc1 result="> 100 mg/mL"
molecule=CCCCCCCCCCCCCCCCNC(=O)CN(CC(N)=O)C(=O)CCCCCNC(=O)[C@H](Cc1c[nH]c2ccccc12)NC(=O)[C@H](CCCNC(=N)N)NC(=O)[C@H](CSSC)NC(=O)[C@H](CCCNC(=N)N)NC(=O)CCNC(=O)[C@@H](NC(=O)[C@H](Cc1c[nH]cn1)NC(=O)[C@@H](NC(=O)CNCC(=O)O)[C@@H](C)O)C(c1ccccc1)c1ccccc1 result="< 10 mg/mL"
molecule="CCCCCCCCCCCCCCCCNC(=O)CN(CC(N)=O)C(=O)CCCCCNC(=O)C(Cc1c[nH]c2ccccc12)NC(=O)C(CCCNC(=N)N)NC(=O)C(CSSC)NC(=O)C(CCCNC(=N)N)NC(=O)CC1CCCN1C(=O)C(NC(=O)C(Cc1c[nH]cn1)NC(=O)C(NC(=O)CNCC(=O)O)C(C)O)C(c1ccccc1)c1ccccc1 (stereo not drawn)" result="> 100 mg/mL"

# input for lookup
Note to self: solubility recorded for CCCCCCCCCCCCCCCCNC(=O)CN(CC(N)=O)C(=O)CCCCCNC(=O)[C@H](Cc1c[nH]c2ccccc12)NC(=O)[C@H](CCCNC(=N)N)NC(=O)[C@H](CSSC)NC(=O)[C@H](CCCNC(=N)N)NC(=O)[C@@H]1CCCN(C(=O)[C@@H](NC(=O)[C@H](Cc2c[nH]cn2)NC(=O)[C@@H](NC(=O)CNCC(=O)O)[C@@H](C)O)C(c2ccccc2)c2ccccc2)C1 was > 100 mg/mL

Hello, the source for this data is patent US9315545B2, in case you need it.
